assay system: human orexin 2 receptor (Homo sapiens (Human))
assay details: Human orexin 2 receptor radioligand binding
conditions used: human orexin 2 receptor; averages of 2-20 runs; read-out: hOX2 Ki
pKi: −log10 of the molar value.
Hi, to clarify the labels: 1 covers pKi from 6 upward, 0 covers anything below 6.

Answered cases to consult:
• O=C(c1ccc(F)cc1-c1ncccn1)N1C[C@H]2C[C@@H](Nc3ncc(C(F)(F)F)cn3)[C@@H]1C2 [Example 227] = 0
• O=C(c1cccc(F)c1-c1ncc(F)cn1)N1C[C@@H]2CC[C@H]1[C@H](Oc1cnc(C(F)(F)F)cn1)C2 [Example 273] = 0
• COc1cccc(-n2nccn2)c1C(=O)N1C[C@H]2C[C@@H](Oc3ccc(C(F)(F)F)cn3)[C@@H]1C2 [Example 289] = 1
• O=C(c1cccc(F)c1-c1ncccn1)N1C[C@H]2C[C@@H](Nc3ccc(Cl)cn3)[C@@H]1C2 [Example 170] = 1
• O=C(c1cc(F)ccc1-n1nccn1)N1CC2CC(Nc3cnc(C(F)(F)F)cn3)C1C2 (stereo not shown) [Example 194] = 1

Task: API: above_or_equal(metric=pKi, cutoff=6) for item O=C(c1cccc(F)c1-n1nccn1)N1C[C@H]2C[C@@H](Nc3ccc(C(F)(F)F)cn3)[C@@H]1C2 [Example 144]
Output: 1

Task: Would you mind doing O=C(c1cc(F)ccc1-c1ncccn1)N1C[C@H]2C[C@@H](Nc3cnc(C(F)(F)F)cn3)[C@@H]1C2 [Example 199] as well?
Output: 1

---

assay system: human orexin 2 receptor (Homo sapiens (Human), UniProt O43614)
Sequence (O43614 whole entry): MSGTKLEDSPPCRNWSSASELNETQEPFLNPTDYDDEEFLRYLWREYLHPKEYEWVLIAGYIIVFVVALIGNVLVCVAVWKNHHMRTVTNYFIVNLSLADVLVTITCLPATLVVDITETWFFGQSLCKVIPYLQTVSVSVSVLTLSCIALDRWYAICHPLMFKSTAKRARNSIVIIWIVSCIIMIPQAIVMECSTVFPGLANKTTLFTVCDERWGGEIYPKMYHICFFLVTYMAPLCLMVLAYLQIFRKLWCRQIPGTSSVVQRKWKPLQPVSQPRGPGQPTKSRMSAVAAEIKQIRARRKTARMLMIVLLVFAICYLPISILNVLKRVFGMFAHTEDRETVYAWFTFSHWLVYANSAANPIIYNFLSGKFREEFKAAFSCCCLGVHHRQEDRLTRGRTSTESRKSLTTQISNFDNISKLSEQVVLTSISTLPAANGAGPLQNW
assay details: Human orexin 2 receptor radioligand binding
conditions used: human orexin 2 receptor; averages of 2-20 runs; read-out: hOX2 Ki
parameter: Ki (nM)
Give bare numbers, in nM.

Some entries whose results are on file:
- O=C(c1cccc(F)c1-c1ncccn1)N1C[C@H]2C[C@@H](Oc3ccc(Br)cn3)[C@@H]1C2: 903
- CN(c1ccc(C(F)(F)F)cn1)[C@@H]1C[C@H]2C[C@@H]1N(C(=O)c1cccc(F)c1-n1nccn1)C2: 329
- O=C(c1ccc(F)cc1-n1nccn1)N1C[C@H]2C[C@@H](Oc3ccc(C(F)(F)F)cn3)[C@@H]1C2: 2330
- O=C(c1cccc(F)c1-c1ncccn1)N1C[C@H]2C[C@@H](Nc3nc4ccccc4o3)[C@@H]1C2: 206
- O=C(c1cccc(F)c1-c1ncccn1)N1C[C@H]2C[C@@H](Nc3ccc(Br)cn3)[C@@H]1C2: 239

Give Ki for all compounds that follow.
1. O=C(c1ncccc1-c1ncccn1)N1C[C@H]2C[C@@H](Nc3cnc(C(F)(F)F)cn3)[C@@H]1C2
2. O=C(c1ccccc1-n1nccn1)N1C[C@H]2C[C@@H](Oc3ccc(Br)cn3)[C@@H]1C2
3. O=C(c1ccccc1-c1ncccn1)N1C[C@H]2C[C@@H](Nc3cnc(C(F)(F)F)cn3)[C@@H]1C2

Output:
1: 678; 2: 443; 3: 213

Give Ki for all compounds that follow.
1. Cc1ccc(-c2ncccn2)c(C(=O)N2C[C@H]3C[C@@H](Nc4cnc(C(F)(F)F)cn4)[C@@H]2C3)n1
2. CCc1cnc(O[C@@H]2C[C@H]3C[C@@H]2N(C(=O)c2ccccc2-n2nccn2)C3)nc1
3. O=C(c1ccccc1-n1nccn1)N1C[C@H]2C[C@@H](Nc3ccc(C(F)F)cn3)[C@@H]1C2
4. O=C(c1cccc(F)c1-c1ncccn1)N1C[C@H]2C[C@@H](Nc3ncc(C(F)(F)F)cn3)[C@@H]1C2
5. O=C(c1nccnc1-c1ccccc1)N1C[C@H]2C[C@@H](Oc3ccc(C(F)(F)F)cn3)[C@@H]1C2
6. COc1ccc(C(=O)N2C[C@H]3C[C@@H](Oc4ccc(C(F)(F)F)cn4)[C@@H]2C3)c(-c2ncccn2)c1
7. O=C(c1ccccc1-c1ncc(F)cn1)N1C[C@H]2C[C@@H](Nc3ncc(C(F)(F)F)cn3)[C@@H]1C2

Output:
1: 163; 2: 1200; 3: 264; 4: 612; 5: 3100; 6: 5800; 7: 1300
